- System: Klebsiella pneumoniae ATCC 33495
- assay.remarks: MIC determination
- Assay type: cell-based
- experimental.parameters: Klebsiella pneumoniae, ATCC33495; K. pneumonia 33495; 18 hours at 37° C.; read-out: Minimum inhibitory concentrations (MIC)
readout.name: MIC (µg/mL)

INSERT INTO results (compound, readout_name, relation_sign, reported_result) VALUES
  ('CCn1cc(C(=O)O)c(=O)c2cc(F)c(N3CCNC(C)C3)c(F)c21 (stereo not shown)', 'MIC', '=', 4),
  ('CC(=O)O[C@H]1C[C@@]2(C)[C@@H](C[C@@H](O)[C@H]3[C@@]4(C)CC[C@@H](O)[C@@H](C)[C@@H]4CC[C@@]32C)/C1=C(\CCC=C(C)C)C(=O)O', 'MIC', '>', 128),
  ('COc1cc(Cc2cnc(N)nc2N)c2c(c1OC)OC(C1CC1)C=C2 (racemic)', 'MIC', '=', 8),
  ('O=C(N[C@H](CO)[C@H](O)c1ccc([N+](=O)[O-])cc1)C(Cl)Cl', 'MIC', '>', 128);

---

// reported MIC per item
- System: Klebsiella pneumoniae ATCC 33495
- assay.remarks: MIC determination
- Type: cell-based
- experimental.parameters: Klebsiella pneumoniae, ATCC33495; K. pneumonia 33495; 18 hours at 37° C.; read-out: Minimum inhibitory concentrations (MIC)
readout.name: MIC

INSERT INTO measurements (compound, system_under_test, reported_result) VALUES
  ('CC1(C)S[C@@H]2[C@H](NC(=O)[C@H](N)c3ccccc3)C(=O)N2[C@H]1C(=O)O', 'Klebsiella pneumoniae ATCC 33495', '> 128 µg/mL'),
  ('C[C@H]1c2cccc(O)c2C(=O)C2=C(O)[C@]3(O)C(=O)C(C(N)=O)=C(O)[C@@H](N(C)C)[C@@H]3[C@@H](O)[C@@H]21', 'Klebsiella pneumoniae ATCC 33495', '> 128 µg/mL'),
  ('COc1ccc(C[C@H](N)C(=O)N[C@H]2[C@@H](O)[C@H](n3cnc4c(N(C)C)ncnc43)O[C@@H]2CO)cc1', 'Klebsiella pneumoniae ATCC 33495', '> 128 µg/mL');

---

- System: Streptococcus pneumoniae ATCC 49619
- assay.remarks: checkerboard synergy assay with iclaprim
- Assay type: cell-based
- experimental.parameters: antibiotic in combination with iclaprim; S. pneumoniae 49619
// reported Σ FIC per item
readout.name: Σ FIC

INSERT INTO assay_data (compound, reported_result) VALUES
  ('NC[C@H]1O[C@H](O[C@H]2[C@H](O)[C@@H](O[C@H]3O[C@H](CO)[C@@H](O)[C@H](N)[C@H]3O)[C@H](N)C[C@@H]2N)[C@H](N)C[C@@H]1O', '1.00-1.25'),
  ('NC[C@H]1O[C@H](O[C@H]2[C@H](O)[C@@H](O[C@H]3O[C@H](CO)[C@@H](O)[C@H](N)[C@H]3O)[C@H](N)C[C@@H]2N)[C@H](O)[C@@H](O)[C@@H]1O', '1.00-1.25'),
  ('Cc1onc(-c2ccccc2)c1C(=O)N[C@@H]1C(=O)N2[C@@H]1SC(C)(C)[C@@H]2C(=O)O', '1.06-1.50');

Source listed as patent US20200038399A1.
